Where do these numbers come from? They come from paper PMC10728186.

Each item that follows carries a reported Kd.
Molecular target: XcAP-1 (Xenopsylla cheopis, UniProt A2IA89)
Construct: mature ORF (no signal peptide) in VR1020 vector, secreted from HEK293 / Expi293; monomer; residues Asp7-Asn361 (mature count) seen in crystal; natural Gly and Ser in place of the two catalytic His
Sequence (A2IA89 17-374): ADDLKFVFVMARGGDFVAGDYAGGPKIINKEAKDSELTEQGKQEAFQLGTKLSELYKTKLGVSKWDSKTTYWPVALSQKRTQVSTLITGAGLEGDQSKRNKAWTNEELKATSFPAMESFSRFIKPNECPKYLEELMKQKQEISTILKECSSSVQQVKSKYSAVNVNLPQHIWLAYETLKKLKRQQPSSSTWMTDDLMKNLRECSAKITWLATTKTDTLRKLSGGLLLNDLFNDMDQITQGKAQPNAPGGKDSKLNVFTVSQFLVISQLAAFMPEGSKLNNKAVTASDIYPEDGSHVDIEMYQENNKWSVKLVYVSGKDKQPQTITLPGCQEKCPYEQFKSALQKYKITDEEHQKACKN
Experiment: isothermal titration calorimetry
Format: binding
Details: read-out: XcAP-1
A number alone suffices; assume nM.

Some compounds with known Kd results, for comparison:
>  <compound>
NC[C@H](O)c1ccc(O)c(O)c1 [Norepinephrine]

>  <system.name>
XcAP-1 (Xenopsylla cheopis, UniProt A2IA89)

>  <assay.endpoint>
Kd

>  <obs.value>
76.9

$$$$
>  <compound>
CNC[C@H](O)c1ccc(O)c(O)c1 [Epinephrine]

>  <system.name>
XcAP-1 (Xenopsylla cheopis, UniProt A2IA89)

>  <assay.endpoint>
Kd

>  <obs.value>
17.7

$$$$

// switching to the query compound
What value of Kd has been reported for the following compound? CCCCC/C=C\C\C=C/C=C/C=C/[C@@H](SC[C@H](NC(=O)CC[C@H](N)C(=O)O)C(=O)NCC(=O)O)[C@@H](O)CCCC(=O)O
37.4

* * *

Biological target: XcAP-2 (Xenopsylla cheopis, UniProt A2IA93)
Construct: mature ORF (no signal peptide) in pcDNA3.1(+), secreted from HEK293 / Expi293; natural Gly and Pro in place of the two catalytic His; Thr10, Ile228, His265 (mature count)
Sequence (A2IA93 20-378): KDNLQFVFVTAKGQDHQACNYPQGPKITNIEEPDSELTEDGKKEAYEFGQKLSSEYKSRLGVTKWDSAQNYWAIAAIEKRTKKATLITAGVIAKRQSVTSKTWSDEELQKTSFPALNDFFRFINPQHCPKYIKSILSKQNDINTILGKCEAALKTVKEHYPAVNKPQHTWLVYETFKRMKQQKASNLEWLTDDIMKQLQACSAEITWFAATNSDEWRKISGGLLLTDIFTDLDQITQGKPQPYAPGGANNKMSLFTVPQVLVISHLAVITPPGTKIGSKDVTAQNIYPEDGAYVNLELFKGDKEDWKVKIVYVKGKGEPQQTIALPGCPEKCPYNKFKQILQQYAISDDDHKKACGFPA
Test: isothermal titration calorimetry
Assay type: binding
Settings: read-out: XcAP-2
Under this convention, TRUE denotes Kd strictly below 80 nM and FALSE denotes Kd at or above 80 nM.

Please review the following examples before continuing.
>  <smiles.code>
NCCc1c[nH]cn1

>  <system.name>
XcAP-2 (Xenopsylla cheopis, UniProt A2IA93)

>  <assigned.category>
TRUE

$$$$
>  <smiles.code>
CCCCC/C=C\C\C=C/C=C/C=C/[C@@H](SC[C@H](N)C(=O)NCC(=O)O)[C@@H](O)CCCC(=O)O

>  <system.name>
XcAP-2 (Xenopsylla cheopis, UniProt A2IA93)

>  <assigned.category>
FALSE

$$$$
>  <smiles.code>
CCCCC/C=C\C[C@@H](O)/C=C/C=C/C=C\[C@@H](O)CCCC(=O)O

>  <system.name>
XcAP-2 (Xenopsylla cheopis, UniProt A2IA93)

>  <assigned.category>
FALSE

$$$$

Field: next molecule
Please determine if CCCCC/C=C\C\C=C/C=C/C=C/[C@@H](SC[C@H](N)C(=O)O)[C@@H](O)CCCC(=O)O is below 80 nM in terms of Kd.
TRUE

* * *

Biological target: XcAP-1 (Xenopsylla cheopis, UniProt A2IA89)
Construct: mature ORF (no signal peptide) in VR1020 vector, secreted from HEK293 / Expi293; monomer; residues Asp7-Asn361 (mature count) seen in crystal; natural Gly and Ser in place of the two catalytic His
Test: isothermal titration calorimetry; crystal structure […] A
Assay type: binding
assay.endpoint: pKd
pKd field: float, defined as -log10 of concentration (mol/L).

What value of pKd has been reported for the following compound? NCCc1c[nH]c2ccc(O)cc12
8.43
